- Test system: Fibrinogen (Alexa647-labelled)
- Test description: fibrinogen binders on compound microarrays, profiling panel, artefact control for SMM control-protein annotation, biochemical, small-molecule microarray, 635/667 nm fluorescence (AID 1131);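 further: z-score merges 667 nm fluorescence with per-spot signal-to-noise over triplicate slides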
- Measurement parameters: fibrinogen-A647 binding fluorescence, higher = more signal
Endpoint name: composite z-score

{"Compound": "N#Cc1ccc(C(O)C2C=CC3C(=O)N(c4ccccc4)C(=O)C3N2Nc2ccccc2)cc1 (stereo not given)", "Reported value": 0.528}
{"Compound": "[N-]=[N+]=NCc1ccccc1C[C@@]1(C(=O)N2CCOCC2)N=C(c2ccc(OCCCO)cc2)O[C@@H]1c1ccccc1", "Reported value": 0.884}
{"Compound": "O=C1OCCC/C=C\\[C@H]2OC34C=CCN(CCN5CCOCC5)C(=O)[C@H]3N(CCCCCCO)C(=O)[C@@H]4C12 (stereo not given in full)", "Reported value": -0.613}
{"Compound": "N#Cc1ccc(NN2C(C(O)c3ccc(F)cc3)C=CC3C(=O)N(c4ccccc4)C(=O)C32)cc1 (stereo not given)", "Reported value": 0.797}
{"Compound": "COc1cc(CO)cc(I)c1O[C@H]1C=C(C(=O)NCCO)C[C@@H](NCc2ccc(F)cc2)[C@@H]1O", "Reported value": 0.619}
{"Compound": "CN(C)c1ccc(C(O)C2C=CC3C(=O)N(c4ccccc4)C(=O)C3N2Nc2ccc([N+](=O)[O-])cc2)cc1 (stereo not given)", "Reported value": 0.979}
{"Compound": "C[N+](C)(C)CCCCCCNC(=O)[C@H]1C[C@H]2C(=O)N[C@@H](Cc3ccccc3)C(=O)N2[C@H]1c1ccc(O)cc1", "Reported value": -0.222}
{"Compound": "C=CCN1Cc2ccccc2[C@H]2OC(c3ccc(OCCCO)cc3)=N[C@@]2(CC=C)C1=O", "Reported value": 0.59}
{"Compound": "COc1cc2c(cc1OC)CN(C(=O)[C@@H]1[C@H]3C(=O)O[C@H](c4ccccc4)[C@H](c4ccccc4)N3[C@H](c3ccc(OCCO)cc3)[C@@]13C(=O)Nc1ccccc13)CC2", "Reported value": 0.971}
{"Compound": "COCCOC(=O)N1C(=O)[C@@]2(c3cc(C#Cc4ccc(OC)cc4)ccc31)[C@H](C(=O)Nc1nc3ccccc3s1)[C@H]1C(=O)O[C@H](c3ccccc3)[C@H](c3ccccc3)N1[C@@H]2c1ccc(OCCO)cc1", "Reported value": 0.809}
{"Compound": "COc1ccc(CN(C2=CC[C@@]3(C(N)=O)C(=O)C(Cl)=C(Cl)C(=O)[C@@]3(C#N)C2)S(=O)(=O)c2ccc(Br)cc2)cc1", "Reported value": 0.115}
{"Compound": "O=C1c2ccccc2[C@](Cc2ccccc2I)(C(=O)NCC(F)(F)F)[C@H](c2ccc(CO)cc2)N1C1CCCCC1", "Reported value": 0.964}
{"Compound": "CN1C(=O)C2C=CC(C(O)c3cccc4ccccc34)N(N3CCCCC3)C2C1=O (stereo not given)", "Reported value": 0.853}
{"Compound": "COc1ccc([Si](C)(C)[C@H]2[C@H](CC(=O)N(CCO)Cc3ccccc3)O[C@@]3(C(=O)N(Cc4cccc(N5CCOC5=O)c4)c4ccccc43)[C@@H]2C)cc1", "Reported value": 0.206}
{"Compound": "CC(=O)NCCCC[C@@H]1NC(=O)[C@@H]2C[C@H](C(=O)NCCCC[N+](C)(C)C)[C@H](c3ccc(O)cc3)N2C1=O", "Reported value": 0.764}

###

Reported composite z-score values for a set of compounds
- Assayed target: Left-right determination factor 2 (Homo sapiens)
- Test description: LEFTY2 binders on small-molecule microarrays, primary screen, biochemical, small-molecule microarray, 635 nm fluorescence scan (AID 1110)
- Measurement parameters: LEFTY2 binding, higher = more signal
Endpoint name: composite z-score

{"Compound": "CC(C)(C)N1CC=CC23O[C@@H]4C=CCCOC(=O)C4[C@H]2C(=O)N(CCO)[C@@H]3C1=O (some centres undefined)", "Reported value": -0.475}
{"Compound": "CC1=C[C@@]2(CO)C(=O)[C@]3(CO3)[C@@H]1[C@H]1[C@]2(C)C=C(CO)C(=O)[C@]12CO2", "Reported value": 0.351}
{"Compound": "O=C1O[C@@H](c2ccccc2)[C@@H](c2ccccc2)N2[C@@H](c3ccc(O)cc3)[C@]3(C(=O)Nc4ccc(C#CC5=CCCCC5)cc43)[C@@H](C(=O)NC[C@H](O)c3ccccc3)[C@H]12", "Reported value": 0.915}
{"Compound": "COC(=O)[C@@]1(Cc2ccccc2)[C@@H]2C(=CC(=O)[C@H]2CC(=O)C(=O)N(C)C)CN1C(=O)c1ccccc1", "Reported value": 0.25}
{"Compound": "[N-]=[N+]=Nc1ccccc1[C@H]1OC(c2ccc(OCCCO)cc2)=N[C@@]1(Cc1ccccc1)C(=O)N1CCCCC1", "Reported value": 0.346}
{"Compound": "CCOC(=O)C[C@H]1[C@H](OC(=O)Cc2ccc3c(c2)OCO3)[C@@H](NC(=O)Cc2ccc(OC)cc2)c2cc(OCCCO)ccc2N1C(=O)c1ccc2ccccc2n1", "Reported value": 0.155}
{"Compound": "CC(C)C[C@@H]1NC(=O)[C@@H]2C[C@H](C(=O)NCCCCCN)[C@H](c3ccc(O)cc3)N2C1=O", "Reported value": 1.46}
{"Compound": "COCCOC(=O)N1C(=O)[C@@]2(c3cc(C#Cc4ccc(OC)cc4)ccc31)[C@H](c1ccc(O)cc1)N1[C@H](c3ccccc3)[C@H](c3ccccc3)OC(=O)[C@H]1[C@@H]2C(=O)N1CCCCCCC1", "Reported value": 0.187}
{"Compound": "COCCCNC(=O)[C@@]1(Sc2ccc(C)cc2)CC(=O)N(C2CCCCC2)[C@@H]1c1ccc(CO)cc1", "Reported value": -0.942}
{"Compound": "CCOC(=O)C1=CC[C@@H](c2cccc(Cl)c2)N(S(=O)(=O)c2ccc(C)cc2)C1", "Reported value": -0.326}
{"Compound": "COC(=O)C(CC#Cc1ccc2c(c1)[C@]1(C(=O)N2)[C@H](c2ccccc2OCCO)N2[C@H](c3ccccc3)[C@H](c3ccccc3)OC(=O)[C@H]2[C@@H]1C(=O)NC[C@H](O)c1ccccc1)C(=O)OC", "Reported value": 0.261}
{"Compound": "NC(=O)NCC#Cc1ccc2c(c1)[C@]1(C(=O)N2)[C@H](C(=O)NC[C@H](O)c2ccccc2)[C@H]2C(=O)O[C@H](c3ccccc3)[C@H](c3ccccc3)N2[C@@H]1c1ccc(OCCO)cc1", "Reported value": -0.461}
{"Compound": "COC(=O)c1c2oc(c1C(=O)OC)C(=O)N(C)Cc1cn(nn1)C[C@H](Cc1ccccc1)NC(=O)N[C@H](CO)CC2", "Reported value": -0.683}
{"Compound": "O=C1NC(=O)C2C1C=CC(C(O)c1cccc3ccccc13)N2Nc1ccc(Cl)cc1Cl (centres undefined)", "Reported value": -0.908}

###

- Test description: small-molecule microarray binders of probe aDKK1, primary screen, biochemical, biotinylated probe, 635/667 nm fluorescence (AID 1099);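 further: score merges 667nm spot fluorescence with signal to noise across triplicate slides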
- Measurement parameters: higher = more signal
Answer Not fulfilled if composite z-score is under 0.07, and Fulfilled if it is 0.07 or more.

{"Compound": "C=C(C)c1cc2c(c(CCCCCC)n1)[Si](C(C)C)(C(C)C)OC2", "Assigned category": "Not fulfilled"}
{"Compound": "[N-]=[N+]=NCc1ccccc1C[C@@]1(C(=O)N2CCCCC2)N=C(c2ccc(OCCCO)cc2)O[C@@H]1c1ccccc1", "Assigned category": "Fulfilled"}
{"Compound": "C=C(/C(=C/C[C@H](OC(C)=O)c1cccc(OCCO)c1)c1cnc2ccccc2c1)C(C)C", "Assigned category": "Not fulfilled"}
{"Compound": "CC(=O)NCCCC[C@@H]1NC(=O)[C@@H]2C[C@H](C(=O)NCCCC[N+](C)(C)C)[C@H](c3ccc(O)cc3)N2C1=O", "Assigned category": "Not fulfilled"}
{"Compound": "CCOC(=O)C1CCCCN1 (centres undefined)", "Assigned category": "Fulfilled"}
{"Compound": "COC(=O)c1c2oc(c1C(=O)OC)C(=O)N(C)Cc1cn(nn1)C[C@H](Cc1ccccc1)NC(=O)N[C@H](CO)CC2", "Assigned category": "Not fulfilled"}
{"Compound": "CCOC(=O)C1=CC[C@@H](c2ccc(OCc3ccccc3)c(OC)c2)N(S(=O)(=O)c2ccc(C)cc2)[C@H]1c1ccc(SC)cc1", "Assigned category": "Fulfilled"}
{"Compound": "C[C@]1(C(=O)NC2CC2)c2ccccc2C(=O)N(Cc2ccccc2)[C@H]1c1ccc(CO)cc1", "Assigned category": "Fulfilled"}
{"Compound": "CC(C)(C)OC(=O)CC[C@]1(C(=O)NCc2ccccc2)N=C(c2ccc(OCCCO)cc2)O[C@H]1c1ccccc1CN=[N+]=[N-]", "Assigned category": "Fulfilled"}
{"Compound": "C=C(/C(=C/C[C@H](OC(C)=O)c1ccccc1OCCO)c1cc(C(=O)OC)ccc1OC)C(C)C", "Assigned category": "Not fulfilled"}
{"Compound": "NCCCCCCNC(=O)[C@@H]1C[C@@H]2C(=O)N[C@@H](CCCCN)C(=O)N2[C@@H]1c1cccc(OCCO)c1", "Assigned category": "Fulfilled"}
{"Compound": "COCCOC(=O)N1C(=O)[C@@]2(c3cc(C#CC4=CCCCC4)ccc31)[C@H](C(N)=O)[C@H]1C(=O)O[C@H](c3ccccc3)[C@H](c3ccccc3)N1[C@@H]2c1ccccc1OCCO", "Assigned category": "Fulfilled"}
{"Compound": "COCCOC(=O)N1C(=O)[C@@]2(c3cc(C#Cc4ccc(OC)cc4)ccc31)[C@H](C(=O)Nc1nc3ccccc3s1)[C@H]1C(=O)O[C@H](c3ccccc3)[C@H](c3ccccc3)N1[C@@H]2c1ccc(OCCO)cc1", "Assigned category": "Not fulfilled"}
{"Compound": "C=CCC(OC(C)=O)[C@@H]1[C@@H](N(Cc2cccc3ccccc23)C(=O)Cc2ccc(F)cc2)c2cc(OCCCO)ccc2N1C(=O)c1ccc2ccccc2n1 (some centres undefined)", "Assigned category": "Fulfilled"}
{"Compound": "COC(=O)c1nc2oc1CC[C@@H](CO)NC(=O)N(C)Cc1cnnn1C[C@H](Cc1ccccc1)NC2=O", "Assigned category": "Not fulfilled"}
{"Compound": "COCCOC(=O)N1C(=O)[C@@]2(c3cc(C#Cc4ccc(OC)cc4)ccc31)[C@H](c1ccccc1OCCO)N1[C@H](c3ccccc3)[C@H](c3ccccc3)OC(=O)[C@H]1[C@@H]2C(=O)N1CCCCCCC1", "Assigned category": "Fulfilled"}
{"Compound": "COC(=O)[C@@]1(Cc2ccc(OC)cc2)[C@@H]2C(=CC(=O)[C@H]2CC(=O)C(=O)N(C)C)CN1C(=O)c1ccccc1", "Assigned category": "Fulfilled"}
{"Compound": "C[C@@H]1ON(c2ccc(C(=O)OC(C)(C)C)cc2)[C@H](c2ccc(O)cc2)[C@H]1C(=O)N1C(=O)OC[C@H]1Cc1ccccc1", "Assigned category": "Not fulfilled"}
{"Compound": "Cc1ccc(S[C@]2(C(=O)O)CC(=O)N(C3Cc4ccccc4C3)[C@@H]2c2ccc(CO)cc2)cc1", "Assigned category": "Fulfilled"}
{"Compound": "C=C(C)C1CCC(C(O)C2C=CC3C(=O)N(C)C(=O)C3N2N2CCCCC2)CC1 (centres undefined)", "Assigned category": "Fulfilled"}
{"Compound": "C=CC[C@]1(C(=O)O)COC(c2ccc(OCCCO)cc2)=N1", "Assigned category": "Not fulfilled"}
{"Compound": "C=C(COC)/C(=C/C[C@H](OC(=O)c1ccncc1)c1ccccc1OCCO)c1cnc2ccccc2c1", "Assigned category": "Fulfilled"}
{"Compound": "COC(=O)C(CC#Cc1ccc2c(c1)[C@]1(C(=O)N2)[C@H](C(=O)N2CCN(c3ncccn3)CC2)[C@H]2C(=O)O[C@H](c3ccccc3)[C@H](c3ccccc3)N2[C@@H]1c1ccc(OCCO)cc1)C(=O)OC", "Assigned category": "Not fulfilled"}
{"Compound": "CN(C)C(=O)[C@@]1(CCS(=O)(=O)c2ccccc2)N=C(c2ccc(OCCCO)cc2)O[C@H]1c1ccccc1", "Assigned category": "Fulfilled"}
{"Compound": "C[N+](C)(C)CCCCCCNC(=O)[C@H]1C[C@H]2C(=O)NCC(=O)N2[C@H]1c1ccc(O)cc1", "Assigned category": "Not fulfilled"}
{"Compound": "CCCCCCc1nc(C2CC2)cc2c1[Si](C(C)C)(C(C)C)O[C@H]2c1ccccc1", "Assigned category": "Not fulfilled"}
{"Compound": "C=CCC(OC(C)=O)[C@@H]1[C@@H](N(Cc2ccc(-c3cccc(C(F)(F)F)c3)o2)C(=O)c2ccc(C)cc2)c2cc(OCCCO)ccc2N1C(=O)c1ccc2ccccc2c1 (some centres undefined)", "Assigned category": "Not fulfilled"}
{"Compound": "O=C1OCCC/C=C\\[C@H]2OC34C=CCN(CCN5CCOCC5)C(=O)[C@H]3N(CCCCCCO)C(=O)[C@@H]4C12 (some centres undefined)", "Assigned category": "Not fulfilled"}
